Each item that follows carries a reported gametocyte viability.
# Tested on: Plasmodium falciparum NF54/iGP1_RE9H ulg8 stage V gametocytes
# procedure-text: gametocyte viability (luciferase signal relative to DMSO control) (% of DMSO control); higher = less gametocytocidal activity, active = 50 or less
# assay-context: concentration: 10 µM; exposure time: 72 h
Where a name gives a salt, the structure may show the parent alone.
Enter a number only.

Examples with answers:
CCC(=O)N1CCOc2c(cc(-c3ccc(OC)c(OC)c3)cc2OC[C@H]2CCCN(C)C2)C1 [I-CBP112 (hydrochloride)] = 86.9
O=C(/C=C/c1cccc(C(=O)NO)c1)NO = 75.4
Nc1ncn([C@H]2C[C@H](O)[C@@H](CO)O2)c(=O)n1 = 90
Cc1noc(C)c1-c1ccc(-c2nc3cnccn3c2NC(C)(C)C)cc1 = 64.8

Now consider the entry below.
-- ask Quick check: gametocyte viability of O=C(O)c1ccc(O)c2ncccc12 ?
-- reply 84.3

----------
# Tested on: Plasmodium falciparum NF54/iGP1_RE9H ulg8 stage V gametocytes
# procedure-text: gametocyte viability (luciferase signal relative to DMSO control) (% of DMSO control); higher = less gametocytocidal activity, active = 50 or less
# assay-context: concentration: 1 µM; exposure time: 72 h
Where a name gives a salt, the structure may show the parent alone.
measured-property: gametocyte viability
Enter a number only.

Examples with answers:
O=C(CCl)Nc1ccc(S(=O)(=O)c2ccc(NC(=O)CCl)cc2)cc1 = 78.5
C=C1C(=O)O[C@@H](CCC)[C@@H]1C(=O)O = 97.4
CC(C)N(CCCNC(=O)Nc1ccc(C(C)(C)C)cc1)C[C@H]1O[C@@H](n2ccc3c(N)ncnc32)[C@H](O)[C@@H]1O = 94.6

-- ask Quick check: gametocyte viability of CCC(CC)(NC(=O)C(C)C)C(=O)N[C@@H](CCCN=C(N)N)C(=O)NC1(C(=O)NC(c2ccc(F)cc2)c2ccc(F)cc2)CCCC1 ?
-- reply 82.6

-- ask Quick check: gametocyte viability of Cc1cc(C)cc(C(=O)NOCCCCCC(=O)NO)c1 ?
-- reply 92.1

-- ask Quick check: gametocyte viability of COC(=O)c1ccc2c(c1)nc(NC(=O)c1ccccc1)n2CCCc1ccccc1 ?
-- reply 86.9

-- ask Quick check: gametocyte viability of CCCCCCCCCCCCCCCc1cccc(O)c1C(=O)O ?
-- reply 84.7

-- ask Quick check: gametocyte viability of COC(=O)c1ccc(N2CCN(C)CC2)c(NC(=O)c2cccc(OC)c2)c1 ?
-- reply 85.8

-- ask Quick check: gametocyte viability of O=C(O)CC[C@H](O)C(=O)O [L-α-Hydroxyglutaric Acid (sodium salt)] ?
-- reply 92.7

-- ask Quick check: gametocyte viability of Cc1cc(C)c(CNC(=O)c2cc(-c3ccc(N4CCN(C)CC4)nc3)cc3c2c(C)cn3C(C)C)c(=O)[nH]1 ?
-- reply 78.5

-- ask Quick check: gametocyte viability of O=C(O)c1ccc(O)c2ncccc12 ?
-- reply 90.6

-- ask Quick check: gametocyte viability of CCN(c1cc(-c2ccc(CN3CCOCC3)cc2)cc(C(=O)NCc2c(C)cc(C)[nH]c2=O)c1C)C1CCOCC1 ?
-- reply 95.1

-- ask Quick check: gametocyte viability of O=C(NC[C@H](O)CN1CCc2ccccc2C1)c1ccnc(NC2CCC2)c1 ?
-- reply 80.7

-- ask Quick check: gametocyte viability of O=C(CCCCCCC(=O)Nc1cccnc1)NO [Pyroxamide] ?
-- reply 90.7

-- ask Quick check: gametocyte viability of CCCCOc1ccc(CC(=O)NO)cc1 ?
-- reply 85

-- ask Quick check: gametocyte viability of COc1cc(-c2cn(C)c(=O)c3cnccc23)c(OC)cc1CN(C)C ?
-- reply 86.9

-- ask Quick check: gametocyte viability of CN1CCN(C(=O)CNC2CC2c2ccc(OCc3ccccc3)cc2)CC1 (centres undefined) [RN-1 (hydrochloride)] ?
-- reply 89.1

-- ask Quick check: gametocyte viability of COc1cc(O)c2c(c1)oc(=O)c1c3cc(O)c(O)cc3oc21 ?
-- reply 89.6

-- ask Quick check: gametocyte viability of Nc1ccn([C@@H]2O[C@H](CO)[C@@H](O)C2(F)F)c(=O)n1 ?
-- reply 91.5

----------
# Test system: Plasmodium falciparum NF54/iGP1_RE9H ulg8 stage V gametocytes
# procedure-text: gametocyte viability (luciferase signal relative to DMSO control) (% of DMSO control); higher = less gametocytocidal activity, active = 50 or less
# assay-context: concentration: 10 µM; exposure time: 72 h
Decide using gametocyte viability alone. Strictly below 90: 1. Equal to or above 90: 0.

O=c1cc(N2CCOCC2)oc2c(-c3cccc4c3sc3ccccc34)cccc12 = 0

-- ask Quick check: does CO[C@H]1C[C@@H]2CC[C@@H](C)[C@@](O)(O2)C(=O)C(=O)N2CCCC[C@H]2C(=O)O[C@H]([C@H](C)C[C@@H]2CC[C@@H](O)[C@H](OC)C2)CC(=O)[C@H](C)/C=C(\C)[C@@H](O)[C@@H](OC)C(=O)[C@H](C)C[C@H](C)/C=C/C=C/C=C/1C [Rapamycin (Sirolimus)] have gametocyte viability under 90?
-- reply 1

-- ask Quick check: does CNC(=O)Nc1ccc(-c2nc(N3CC4CCC(C3)O4)c3cnn(C4CCC5(CC4)OCCO5)c3n2)cc1 have gametocyte viability under 90?
-- reply 0

-- ask Quick check: does CCN(CC)CCNC(=O)c1c(C)[nH]c(/C=C2\C(=O)Nc3ccc(F)cc32)c1C [Sunitinib Malate (Sutent)] have gametocyte viability under 90?
-- reply 1

-- ask Quick check: does Cc1ccc(NC(=O)c2ccc(CN3CCN(C)CC3)cc2)cc1Nc1nccc(-c2cccnc2)n1 [Imatinib (Gleevec)] have gametocyte viability under 90?
-- reply 0

-- ask Quick check: does O=C(Nc1ccc(OC(F)(F)F)cc1)c1sccc1NCc1ccnc2ccccc12 have gametocyte viability under 90?
-- reply 1

-- ask Quick check: does Cc1cnc(NC(=O)Nc2cc(Br)c(C)cc2OC[C@@H]2CNCCO2)cn1 have gametocyte viability under 90?
-- reply 0

-- ask Quick check: does COc1cc2nccc(Oc3ccc(NC(=O)Nc4ccc(F)cc4F)c(F)c3)c2cc1OC have gametocyte viability under 90?
-- reply 1

-- ask Quick check: does Cc1cc(C(=O)NOCCO)c(Nc2ccc(I)cc2F)n(C)c1=O have gametocyte viability under 90?
-- reply 0

-- ask Quick check: does CCOc1cc2ncc(C#N)c(Nc3ccc(F)c(Cl)c3)c2cc1NC(=O)/C=C/CN(C)C [Pelitinib (EKB-569)] have gametocyte viability under 90?
-- reply 0

----------
# System: Plasmodium falciparum NF54/iGP1_RE9H ulg8 stage V gametocytes
# procedure-text: gametocyte viability (luciferase signal relative to DMSO control) (% of DMSO control); higher = less gametocytocidal activity, active = 50 or less
# assay-context: concentration: 1 µM; exposure time: 72 h
Counter-ions that a name gives are not always drawn.
Each item that follows carries a reported gametocyte viability.
Enter a number only.

Examples with answers:
CCOC(=O)NNc1nncc2ccccc12 [Todralazine (hydrochloride)] = 89.5
COc1ccc(S(=O)(=O)ON=C2C=C(C)C(=O)C(C)=C2)cc1 = 87.3
CC(C)(CNC(=O)c1cccc(-c2noc(C(F)(F)F)n2)c1)c1coc(-c2ccccc2)n1 = 90.2
Cn1cc(CNCC2CCN(c3ncc(C(=O)NO)cn3)CC2)c2ccccc21 = 62
CNCCN(C)Cc1c[nH]nc1-c1ccc(O[C@H]2C[C@H](OCCC3CCOCC3)C2)cc1 = 85.5
Cc1ccc(NC(=O)CCCCCC(=O)Nc2ccccc2N)cc1 [Pimelic Diphenylamide 106] = 86.8

-- ask Quick check: gametocyte viability of CCCNNC(=O)c1ccc(CNC(=O)/C=C/c2ccccc2)cc1 [HDAC3 Inhibitor] ?
-- reply 83.6

-- ask Quick check: gametocyte viability of Cc1ccc(NC2=CC(=O)c3sc(C)nc3C2=O)cc1 [Ryuvidine] ?
-- reply 59.2

-- ask Quick check: gametocyte viability of Nc1ccccc1NC(=O)CCCCCC(=O)Nc1ccccc1 ?
-- reply 88.7

-- ask Quick check: gametocyte viability of O=C(Cc1ccccc1)Nc1ccc2oc(-c3ccc(Cl)cc3Cl)nc2c1 ?
-- reply 80.3

----------
Each item that follows carries a reported gametocyte viability.
# Test system: Plasmodium falciparum NF54/iGP1_RE9H ulg8 stage V gametocytes
# procedure-text: gametocyte viability (luciferase signal relative to DMSO control) (% of DMSO control); higher = less gametocytocidal activity, active = 50 or less
# assay-context: concentration: 1 µM; exposure time: 72 h
Enter a number only.

Examples with answers:
CC(C)(C)c1cc(C=C(C#N)C(N)=S)cc(C(C)(C)C)c1O = 103
O=C(NOCC1CC1)c1ccc(F)c(F)c1Nc1ccc(I)cc1Cl = 93.2
O=c1c(O)c(-c2ccc(O)c(O)c2)oc2cc(O)cc(O)c12 [Quercetin·2H2O] = 102
Cc1cc(=O)c2c(O)c3c(O)cc(O)c4c5c(O)cc(O)c6c(O)c7c(=O)cc(C)c8c1c2c(c34)c(c65)c78 = 103
CCN(CC)CCNC(=O)c1c(C)[nH]c(/C=C2\C(=O)Nc3ccc(F)cc32)c1C [Sunitinib Malate (Sutent)] = 102
CCCS(=O)(=O)Nc1ccc(F)c(C(=O)c2c[nH]c3ncc(Cl)cc23)c1F = 102
COc1ccc(-c2ccc3c(N4CCOCC4)nc(N4C[C@@H](C)O[C@@H](C)C4)nc3n2)cc1CO = 97.1
Nc1nc2ncnc-2c[nH]1 = 97.6
Cc1nc(N)sc1-c1ccnc(Nc2ccc(N3CCOCC3)cc2)n1 = 107
Cn1cnc2c(F)c(Nc3ccc(Br)cc3Cl)c(C(=O)NOCCO)cc21 [AZD6244 (Selumetinib)] = 102

Now consider the entry below.
-- ask Quick check: gametocyte viability of C=CC(=O)c1ccc2ccccc2c1 ?
-- reply 101
